Tested on: HCI-011.E2 (organoid from an ER-positive breast cancer xenograft)
Assay: CTG-3D luminescence at 96 h relative to day-0 seeding control (ratio to day 0); higher = more growth / less cytotoxicity; PDxO 3D drug screen, 96 h, CTG-3D normalised to day-0 seeding control.
Details: 12.5 pM
Parameter: CTG-3D luminescence at 96 h

Look at this molecule and give its reported CTG-3D luminescence at 96 h. CC[C@H](NC(=O)[C@H](C)NC)C(=O)N1C[C@@H](O)C[C@H]1Cc1c(-c2[nH]c3cc(F)ccc3c2C[C@@H]2C[C@H](O)CN2C(=O)[C@H](CC)NC(=O)[C@H](C)NC)[nH]c2cc(F)ccc12 [birinapant]
1.4

Same lookup for CCN(c1cc(C#CCN2CCOCC2)cc(C(=O)NCc2c(C)cc(C)[nH]c2=O)c1C)[C@H]1CC[C@H](N(C)CCOC)CC1 , please.
1.4

Also need Nc1ccn([C@@H]2O[C@H](CO)[C@@H](O)C2(F)F)c(=O)n1 [gemcitabine] , thanks.
1.72

Further, for C[C@]12CC[C@@H]3c4ccc(O)cc4C[C@@H](CCCCCCCCC[S+]([O-])CCCC(F)(F)C(F)(F)F)[C@H]3[C@@H]1CC[C@@H]2O (stereo partly specified) [fulvestrant] ?
1.73

// repeat for Cc1nc(-c2cn3c(n2)-c2ccc(-c4cnn(C(C)(C)C(N)=O)c4)cc2OCC3)n(C(C)C)n1 [taselisib] and report
1.44

Field entry: COc1cccc2c1C(=O)c1c(O)c3c(c(O)c1C2=O)C[C@@](O)(C(=O)CO)C[C@@H]3O[C@H]1C[C@H](N)[C@H](O)[C@H](C)O1 [doxorubicin]
1.59

----------
System: HCI-010 (organoid from a breast cancer xenograft)
Assay: CTG-3D luminescence at 96 h relative to day-0 seeding control (ratio to day 0); higher = more growth / less cytotoxicity; PDxO 3D drug screen, 96 h, CTG-3D normalised to day-0 seeding control.
Details: 0.005 µM; days in culture: 52
Parameter: CTG-3D luminescence at 96 h
Give the figure only, with no unit attached.

Find the recorded CTG-3D luminescence at 96 h belonging to CC[C@H](NC(=O)[C@H](C)NC)C(=O)N1C[C@@H](O)C[C@H]1Cc1c(-c2[nH]c3cc(F)ccc3c2C[C@@H]2C[C@H](O)CN2C(=O)[C@H](CC)NC(=O)[C@H](C)NC)[nH]c2cc(F)ccc12 [birinapant] and report it.
2.12

And CN(Cc1cnc2nc(N)nc(N)c2n1)c1ccc(C(=O)N[C@@H](CCC(=O)O)C(=O)O)cc1 [methotrexate] ?
2.51

Can you check Cc1nc(-c2cn3c(n2)-c2ccc(-c4cnn(C(C)(C)C(N)=O)c4)cc2OCC3)n(C(C)C)n1 [taselisib] next?
1.97

Then COc1cccc2c1C(=O)c1c(O)c3c(c(O)c1C2=O)C[C@@](O)(C(=O)CO)C[C@@H]3O[C@H]1C[C@H](N)[C@H](O)[C@H](C)O1 [doxorubicin] ?
2.52

Okay, and O=C(c1ccc(F)c(F)c1Nc1ccc(I)cc1F)N1CC(O)([C@@H]2CCCCN2)C1 [cobimetinib] ?
2.39

What do we get for C[C@@H]1COCCN1c1cc(C2([S@](C)(=N)=O)CC2)nc(-c2cc[nH]c3nccc2-3)n1 [ceralasertib] ?
2.26

Same for CC(C)(C(=O)NCC(F)(F)C(F)(F)F)C(=O)N[C@@H]1C(=O)Nc2ccccc2-c2ccccc21
2.38

Okay, and CNC(=O)c1cccc(-c2ccc3c(N4CCOC[C@@H]4C)nc(N4CCOC[C@@H]4C)nc3n2)c1 [vistusertib] ?
2.14

Field entry: COc1cc2c(Oc3ccc4[nH]c(C)cc4c3F)ncnc2cc1OCCCN1CCCC1 [cediranib]
2.23

Same question, NC(=O)c1cccc2cn(-c3ccc([C@@H]4CCCNC4)cc3)nc12 [niraparib] this time
2.17

Also CCc1c2c(nc3ccc(O)cc13)-c1cc3c(c(=O)n1C2)COC(=O)[C@]3(O)CC [SN-38] , if possible.
0.389

Request: O=C(/C=C/c1cccnc1)NCCCCC1CCN(C(=O)c2ccccc2)CC1 [FK866]
1.25

----------
Tested on: HCI-001 (organoid from a triple-negative breast cancer xenograft)
Assay: CTG-3D luminescence at 96 h relative to day-0 seeding control (ratio to day 0); higher = more growth / less cytotoxicity; PDxO 3D drug screen, 96 h, CTG-3D normalised to day-0 seeding control.
Settings: 100 µM; days in culture: 240
# if value of CTG-3D luminescence at 96 h reaches 0.3, tag true (1); if it stays below, tag false (0)

For this compound, is measured CTG-3D luminescence at 96 h 0.3 or higher? CCN(c1cc(C#CCN2CCOCC2)cc(C(=O)NCc2c(C)cc(C)[nH]c2=O)c1C)[C@H]1CC[C@H](N(C)CCOC)CC1
true (1)

# iterate: CC1(C)CCC(c2ccc(Cl)cc2)=C(CN2CCN(c3ccc(C(=O)NS(=O)(=O)c4ccc(N[C@H](CCN5CCOCC5)CSc5ccccc5)c(S(=O)(=O)C(F)(F)F)c4)cc3)CC2)C1
false (0)

Request: C[C@]12CC[C@@H]3c4ccc(O)cc4C[C@@H](CCCCCCCCC[S+]([O-])CCCC(F)(F)C(F)(F)F)[C@H]3[C@@H]1CC[C@@H]2O (stereo partly drawn)
true (1)

Query CNC(=O)c1cccc(-c2ccc3c(N4CCOC[C@@H]4C)nc(N4CCOC[C@@H]4C)nc3n2)c1 next
false (0)

Entry CC(C)n1nc(-c2ccc3oc(N)nc3c2)c2c(N)ncnc21 please
false (0)

Same question, NC(=O)Nc1cc(-c2cccc(F)c2)sc1C(=O)N[C@H]1CCCNC1 this time
false (0)

Now give it for CS(=O)(=O)c1ccc(C(=O)Nc2ccc(Cl)c(-c3ccccn3)c2)c(Cl)c1 too.
true (1)

Consider next the compound CC(=O)O[C@H]1C(=O)[C@@]2(C)[C@H]([C@H](OC(=O)c3ccccc3)[C@]3(O)C[C@H](OC(=O)[C@H](O)[C@@H](NC(=O)c4ccccc4)c4ccccc4)C(C)=C1C3(C)C)[C@]1(OC(C)=O)CO[C@@H]1C[C@@H]2O in the same way.
true (1)

----------
System: HCI-017.E2 (organoid from an ER-positive breast cancer xenograft)
Assay: CTG-3D luminescence at 96 h relative to day-0 seeding control (ratio to day 0); higher = more growth / less cytotoxicity; PDxO 3D drug screen (set 2), 96 h, CTG-3D normalised to day-0 seeding control.
Details: 1 µM
What CTG-3D luminescence at 96 h was measured for each of the following?
# print the numeric value only

Quick one: CTG-3D luminescence at 96 h of CO[C@H]1C[C@@H]2CC[C@@H](C)[C@@](O)(O2)C(=O)C(=O)N2CCCC[C@H]2C(=O)O[C@H]([C@H](C)C[C@@H]2CC[C@@H](OCCO)[C@H](OC)C2)CC(=O)[C@H](C)/C=C(\C)[C@@H](O)[C@@H](OC)C(=O)[C@H](C)C[C@H](C)/C=C/C=C/C=C/1C [everolimus] ?
0.822

// same read-out, input: Cc1c(CN2CCN(C(=O)[C@H](C)O)CC2)sc2c(N3CCOCC3)nc(-c3cnc(N)nc3)nc12 [apitolisib]
0.397

// next record Nc1cc(C(F)(F)F)c(-c2cc(N3CCOCC3)nc(N3CCOCC3)n2)cn1 [buparlisib]
0.869

Next record, please: C[C@@H](Nc1cc(F)cc(F)c1)c1cc(C(=O)N(C)C)cc2c(=O)cc(N3CCOCC3)oc12 [AZD-8186]
1.89

----------
Test system: HCI-017.E2
Assay: CTG-3D luminescence at 96 h relative to day-0 seeding control (ratio to day 0); higher = more growth / less cytotoxicity; PDxO 3D drug screen, 96 h, CTG-3D normalised to day-0 seeding control.
Conditions: 0.1 µM; days in culture: 85
Parameter: CTG-3D luminescence at 96 h
Returns: the value as a bare number; no unit string appended.

// CTG-3D luminescence at 96 h lookup, key: CCN1CCN(Cc2ccc(Nc3ncc(F)c(-c4cc(F)c5nc(C)n(C(C)C)c5c4)n3)nc2)CC1
2.52

Also C=CC(=O)N1CCC[C@@H](n2nc(-c3ccc(Oc4ccccc4)cc3)c3c(N)ncnc32)C1 ?
2.54

Next entry: C=CCn1c(=O)c2cnc(Nc3ccc(N4CCN(C)CC4)cc3)nc2n1-c1cccc(C(C)(C)O)n1
2.57

Record: Cc1cc(Nc2ncnc3ccc(NC4=NC(C)(C)CO4)cc23)ccc1Oc1ccn2ncnc2c1
2.78

Also need CCN(c1cc(C#CCN2CCOCC2)cc(C(=O)NCc2c(C)cc(C)[nH]c2=O)c1C)[C@H]1CC[C@H](N(C)CCOC)CC1 , thanks.
2.07

Try this molecule next: Nc1ccn([C@@H]2O[C@H](CO)[C@@H](O)C2(F)F)c(=O)n1
1.88

Another molecule to check: CC1(C)CCC(c2ccc(Cl)cc2)=C(CN2CCN(c3ccc(C(=O)NS(=O)(=O)c4ccc(N[C@H](CCN5CCOCC5)CSc5ccccc5)c(S(=O)(=O)C(F)(F)F)c4)cc3)CC2)C1
1.93
